System: RXF 393 renal
EXPERIMENT: NCI-60 one-dose screen, 48 h (100 = growth as untreated, 0 = no growth, -100 = all killed)
RUN_PARAMETERS: 10 µM
Compounds without any hit were thinned out: in the full panel of roughly 83,000, 20% have a hit.
MEASUREMENT_NAME: growth (%)
Write it as a number; the unit % goes unstated.

The cases that follow already have their growth on record.
LINE_NOTATION: O=C(CN1CCN(C(=O)c2ccccc2)CC1)Nc1ccccc1SCc1ccccc1
UNIT_DESCRIPTOR: %
OBS_VALUE: 111
//
LINE_NOTATION: C=CCNCCN1C(=O)c2ccc3c4c(ccc(c24)C1=O)C(=O)N(CCNCC=C)C3=O
UNIT_DESCRIPTOR: %
OBS_VALUE: -74.3
//
LINE_NOTATION: O=C(/C=C/c1cccc(B(O)O)c1)c1cccc(B(O)O)c1
UNIT_DESCRIPTOR: %
OBS_VALUE: -86.7
//
LINE_NOTATION: CN1CCc2c(sc3nc4n(-c5ccc(Cl)cc5)cnn4c(=O)c23)C1
UNIT_DESCRIPTOR: %
OBS_VALUE: 122

Task: Returns the measured growth for the input compound. Input: N#Cc1c(N)nc(-c2cc(F)cc(C(F)(F)F)c2)nc1-c1ccccc1F
Result: 37.4

====

System: MDA-MB-231 breast
EXPERIMENT: NCI-60 one-dose screen, 48 h (100 = growth as untreated, 0 = no growth, -100 = all killed)
RUN_PARAMETERS: 10 µM
About 83,000 compounds went through this panel and 20% of them were active in at least one assay; those are over-represented in the sample as a whole.
MEASUREMENT_NAME: growth (%)
Write it as a number; the unit % goes unstated.

COMPOUND: CC(CN(C)C)Oc1ccc(OC(C)CN(C)C)c2c1C(=O)c1ccccc1C2=O (stereo not given)
TGT: MDA-MB-231 breast
OBS_VALUE: 40.9

Task: Returns the measured growth for the input compound. Input: COc1ccc(C(=O)c2ccccc2CN2C(=O)c3ccccc3C2=O)cc1
Result: 109

Task: Returns the measured growth for the input compound. Input: COc1ccc(/C=C2\CCCC3C2=Nc2ccccc2NC3c2ccc(OC)cc2)cc1 (stereo not given)
Result: 82.4

Task: Returns the measured growth for the input compound. Input: Cc1ccc(/C=C/C(=O)C(=O)/C=C/c2ccc(C)cc2)cc1
Result: 106

Task: Returns the measured growth for the input compound. Input: O=C(COc1cccc(/C=C2\CSc3ccc(Cl)cc3C2=O)c1)c1ccc(Cl)cc1
Result: 32

Task: Returns the measured growth for the input compound. Input: CCCCCC(=O)O[C@]1(C(C)=O)CCC2C3CCC4=CC(=O)CC[C@]4(C)C3CC[C@@]21C (stereo not given in full)
Result: 29.1

Task: Returns the measured growth for the input compound. Input: S=c1cnc2ccccc2[nH]1
Result: 111

====

Reported growth is given for each of the following compounds.
System: IGROV1 ovarian
EXPERIMENT: NCI-60 one-dose screen, 48 h (100 = growth as untreated, 0 = no growth, -100 = all killed)
RUN_PARAMETERS: 10 µM
The panel holds about 83,000 compounds, 20% with a hit somewhere; the sample as a whole holds those more often.
Write it as a number; the unit % goes unstated.

COMPOUND: CCOc1ccccc1/C=N\N=C\c1ccccc1O
growth [%]: 95.8

Task: Returns the measured growth for the input compound. Input: COc1ccc(-c2nn(-c3cccc(Cl)c3)cc2-c2c(C#N)c(=O)n3[nH]c(-c4ccccc4)nc3c2C#N)cc1
Result: 108

Task: Returns the measured growth for the input compound. Input: N#Cc1c(-c2ccc(Cl)cc2)n(O)c2ccccc12
Result: 4.22

Task: Returns the measured growth for the input compound. Input: NC(N)=N/N=C(\N=Nc1ccccc1)c1ccc(Cl)cc1
Result: 46.3

Task: Returns the measured growth for the input compound. Input: COc1cc2cc(Oc3ccc(NC(=O)c4ccccc4)cc3)c(C)nc2cc1OC
Result: 91.5

Task: Returns the measured growth for the input compound. Input: C[n+]1c2ccccc2nc2ccccc21
Result: 11

Task: Returns the measured growth for the input compound. Input: O=S(=O)(O)c1ccc(Cl)cc1
Result: 103
